Target: Orexin receptor type 2 (Homo sapiens)
Sequence (O43614 whole entry): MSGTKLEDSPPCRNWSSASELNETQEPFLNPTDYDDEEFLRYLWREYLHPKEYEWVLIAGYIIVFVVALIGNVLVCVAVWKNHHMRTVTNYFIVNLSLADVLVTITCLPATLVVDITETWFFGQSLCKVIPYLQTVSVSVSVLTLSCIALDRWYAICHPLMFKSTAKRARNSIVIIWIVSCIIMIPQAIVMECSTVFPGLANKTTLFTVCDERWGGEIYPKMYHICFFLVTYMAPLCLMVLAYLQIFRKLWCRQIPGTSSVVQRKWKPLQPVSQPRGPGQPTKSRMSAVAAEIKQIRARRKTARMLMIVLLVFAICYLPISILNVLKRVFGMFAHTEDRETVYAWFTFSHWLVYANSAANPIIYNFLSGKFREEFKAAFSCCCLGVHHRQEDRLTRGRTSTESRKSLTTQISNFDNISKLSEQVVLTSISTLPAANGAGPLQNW
Assay: Antagonist activity at human OX2R expressed in CHO cells assessed as reduction in [Ala6,12]orexin-A-induced intracellular Ca2+ mobilization incubated for 30 mins by Fluo-4AM dye based fluorescence assay
EXPERIMENTAL_READOUT: IC50 (nM)
Field: numeric (nM). Do not append units.

Query: Name the recorded IC50 of the compound listed here: CCN(C(=O)c1cc(F)ccc1-n1nccn1)[C@@H](C)Cn1nnc(-c2ccc(F)cn2)n1
Result: 471

Query: Name the recorded IC50 of the compound listed here: Cc1ccc(-n2nccn2)c(C(=O)N[C@@H](C)Cn2cc(-c3ccc(F)cn3)cn2)c1
Result: 840

Query: Name the recorded IC50 of the compound listed here: CCN(C(=O)c1cc(C)ccc1-c1ncccn1)[C@@H](C)Cc1noc(-c2ccc(F)cc2)n1
Result: 8.85

Query: Name the recorded IC50 of the compound listed here: Cc1ccc(-n2nccn2)c(C(=O)N(C)[C@@H](C)Cn2cc(-c3ccc(F)cn3)cn2)c1
Result: 21.2

Query: Name the recorded IC50 of the compound listed here: CCN(C(=O)c1cc(C)ccc1-n1nccn1)[C@@H](C)Cn1cc(-c2ccc(F)cn2)cn1
Result: 5.87

Query: Name the recorded IC50 of the compound listed here: CCN(C(=O)c1cc(F)ccc1-c1ncccn1)[C@@H](C)Cc1noc(-c2ccc(F)cc2)n1
Result: 80.1

Query: Name the recorded IC50 of the compound listed here: CCN(C(=O)c1cc(C)ccc1-n1nccn1)[C@@H](C)Cn1nnc(-c2ccc(F)cc2)n1
Result: 2.57

Query: Name the recorded IC50 of the compound listed here: CC[C@@H](Cn1ccc(-c2ccc(F)cn2)n1)N(C)C(=O)c1cc(C)ccc1-n1nccn1
Result: 29

Query: Name the recorded IC50 of the compound listed here: CCN(C(=O)c1cc(C)ccc1-c1ncccn1)[C@@H](C)Cn1nnc(-c2ccc(F)cc2)n1
Result: 36

Query: Name the recorded IC50 of the compound listed here: CCN(C(=O)c1cc(C)ccc1-n1nccn1)[C@H](C)Cn1ccc(-c2ccc(F)cn2)n1
Result: 250

Query: Name the recorded IC50 of the compound listed here: Cc1ccc(-n2nccn2)c(C(=O)N(C)[C@H](Cn2ccc(-c3ccc(F)cn3)n2)C(C)C)c1
Result: 952

Query: Name the recorded IC50 of the compound listed here: Cc1ccc(-n2nccn2)c(C(=O)N(C)CCn2ccc(-c3ccc(F)cn3)n2)c1
Result: 11.9

Query: Name the recorded IC50 of the compound listed here: CCN(C(=O)c1nc(C)ccc1-n1nccn1)[C@@H](C)Cc1noc(-c2ccc(F)cc2)n1
Result: 40.5

Query: Name the recorded IC50 of the compound listed here: Cc1ccc(-n2nccn2)c(C(=O)N(C)CCn2cc(-c3ccc(F)cn3)cn2)c1
Result: 51.7

====

Molecular target: Orexin/Hypocretin receptor type 1 (Homo sapiens, UniProt O43613)
Sequence (O43613 whole entry): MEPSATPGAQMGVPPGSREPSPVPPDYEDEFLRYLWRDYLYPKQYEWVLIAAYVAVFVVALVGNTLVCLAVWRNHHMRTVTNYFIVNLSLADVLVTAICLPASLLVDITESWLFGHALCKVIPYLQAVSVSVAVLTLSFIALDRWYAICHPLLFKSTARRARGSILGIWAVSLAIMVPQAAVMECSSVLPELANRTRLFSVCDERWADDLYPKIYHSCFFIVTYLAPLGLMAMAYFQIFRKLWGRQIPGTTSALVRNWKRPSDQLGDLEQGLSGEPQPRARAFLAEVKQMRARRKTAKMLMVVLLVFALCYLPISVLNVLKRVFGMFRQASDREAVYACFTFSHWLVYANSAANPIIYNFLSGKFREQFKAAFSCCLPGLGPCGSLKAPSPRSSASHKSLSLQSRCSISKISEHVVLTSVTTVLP
Experiment: Antagonist activity at human OX1R expressed in CHO cells assessed as reduction in [Ala6,12]orexin-A-induced intracellular Ca2+ mobilization incubated for 30 mins by Fluo-4AM dye based fluorescence assay
Provide the reported IC50 of each item.
Field: numeric (nM). Do not append units.

Query: Name the recorded IC50 of the molecule listed here: CCN(C(=O)c1nc(C)ccc1-n1nccn1)[C@@H](C)Cn1nnc(-c2ccc(F)cc2)n1
Result: 1.84

Query: Name the recorded IC50 of the molecule listed here: CCN(C(=O)c1cc(F)ccc1-n1nccn1)[C@@H](C)Cn1nnc(-c2ccc(F)cc2)n1
Result: 3.06

Query: Name the recorded IC50 of the molecule listed here: Cc1ccc(-n2nccn2)c(C(=O)N[C@@H](C)Cn2ccc(-c3ccc(F)cn3)n2)c1
Result: 10.1

Query: Name the recorded IC50 of the molecule listed here: Cc1ccc(-n2nccn2)c(C(=O)N(C)CCn2cc(-c3ccc(F)cn3)cn2)c1
Result: 56.1

Query: Name the recorded IC50 of the molecule listed here: CC[C@@H](Cn1ccc(-c2ccc(F)cn2)n1)N(C)C(=O)c1cc(C)ccc1-n1nccn1
Result: 4.39
